target: Glycogen synthase kinase-3 beta (Homo sapiens)
assay_setup: at 1 µM
readout_kind: inhibition (%)
Kindly provide the numeric value in % only, without the unit symbol.

These recorded examples may help you get a feel for the data.
compound	inhibition / %
O=C(O[C@H]1CN[C@H](C#Cc2cc3ncnc(Nc4ccc5c(cnn5Cc5ccccc5)c4)c3s2)C1)N1CCOCC1	3.77
COc1cccc(Nc2nccc(-c3cnn4ncccc34)n2)c1	79
CCOc1ccc2c(-c3ccnc(Nc4cc(OC)cc(C(F)(F)F)c4)n3)cnn2n1	28
c1ccc(-c2n[nH]cc2-c2ccnc(-c3ccc(OCCn4ccnc4)cc3)c2)nc1	4.83
COc1cccc(-n2ncc3c(N/N=C/c4ccc(C(=O)NCCN(C)C)cc4)ncnc32)c1	79.4

**Query** # returns recorded inhibition (system: Glycogen synthase kinase-3 beta (Homo sapiens)) for CNC(=O)c1sc(-n2cnc3cc(OC)c(OC)cc32)cc1OCc1ccccc1C(F)(F)F
**Result** 3.56

**Query** # returns recorded inhibition (system: Glycogen synthase kinase-3 beta (Homo sapiens)) for CC1=C(C(=O)Nc2ccc3[nH]ncc3c2)C(c2ccc(F)cc2)N=C(c2ccc(C(F)(F)F)nc2)N1 (configuration not stated)
**Result** 4.71

**Query** # returns recorded inhibition (system: Glycogen synthase kinase-3 beta (Homo sapiens)) for CS(=O)(=O)CCNCc1ccc(-c2ccc3ncnc(Nc4ccc(OCc5cccc(C(F)(F)F)c5)cc4)c3c2)o1
**Result** 3.05

**Query** # returns recorded inhibition (system: Glycogen synthase kinase-3 beta (Homo sapiens)) for CCCNc1cccc(-n2ncc3c(N/N=C/c4ccncc4)ncnc32)c1
**Result** 68.7

**Query** # returns recorded inhibition (system: Glycogen synthase kinase-3 beta (Homo sapiens)) for CN1CCC(n2cnc(-c3ccc(F)cc3)c2-c2ccnc(NCCO)n2)CC1
**Result** 7.21

**Query** # returns recorded inhibition (system: Glycogen synthase kinase-3 beta (Homo sapiens)) for FC(F)(F)CNc1nccc(-c2cnn3ncccc23)n1
**Result** 6.02

**Query** # returns recorded inhibition (system: Glycogen synthase kinase-3 beta (Homo sapiens)) for COC(=O)Nc1nc2cc(Oc3ccc(NC(=O)Nc4ccccc4)cc3)ccc2[nH]1
**Result** 8.21

**Query** # returns recorded inhibition (system: Glycogen synthase kinase-3 beta (Homo sapiens)) for Cn1c(-c2nonc2N)nc2cnccc21
**Result** 41.6

**Query** # returns recorded inhibition (system: Glycogen synthase kinase-3 beta (Homo sapiens)) for Cc1ccc(-c2cc3c(NC(=O)C4CC4)ncnc3o2)cc1;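 further: reported values are mean percent inhibition of GSK3B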
**Result** 38.2

====

target: Cyclin-dependent kinase 2 (Homo sapiens) (UniProt P24941);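 further: mean inhibition of CDK2 bound to cyclin A, from the GSK PKIS kinase inhibitor set screen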
assay_setup: at 0.1 µM
readout_kind: inhibition (%)
Kindly provide the numeric value in % only, without the unit symbol.

COc1c(C(N)=O)cc(-c2ccc(Cl)cc2)cc1-c1ccc(S(N)(=O)=O)cc1 3.12
CC(C)c1ccc(-c2cc(-c3c[nH]nc3-c3ccccn3)ccn2)cc1 1.87
FC(F)(F)CNc1nccc(-c2cnn3ncccc23)n1 1.79
COc1cc(N2CCN(C(C)C)CC2)ccc1Nc1nc(Nc2cccc(F)c2C(=O)O)c2cc[nH]c2n1 1.99
CN(C)CCNC(=O)Nc1ccc(N(C)c2ccnc(Nc3ccc(CS(C)(=O)=O)cc3)n2)cc1 1.03

**Query** // inhibition lookup, key: COc1ccccc1-c1cc(/C=C2\C(=O)Nc3ncc(Br)cc32)cc(Br)c1O
**Result** 2.84

**Query** // inhibition lookup, key: CS(=O)(=O)CCNCc1ccoc1-c1ccc2ncnc(Nc3ccc(OCc4ccccc4)cc3)c2c1
**Result** 1.48

The measured values listed here are drawn from ChEMBL document CHEMBL1961873.
